Reference source for all entries: ChEMBL document CHEMBL2384971

# Tested on: Artemia salina
# Procedure Text: Toxicity in brine shrimp larva assessed as corrected mortality at 10 ppm after 24 hrs by microscopic analysis relative to control
# Type: functional
Assay Metric: mortality at 10 ppm (%)

Cpd Smiles: CC(=O)O[C@@H]1C[C@H]2C(C)(C)C(=O)C=C[C@]2(C)[C@H]2CC[C@]3(C)C(=CC[C@H]3[C@H]3COC(C)(C)[C@@H](O)[C@H](O)C3)[C@@]21C
Unit Spec: %
Readout Number: 0

Cpd Smiles: CCC(=O)O[C@@H]1C[C@H](OC(C)=O)[C@@]2(C)[C@H]3[C@@H](OC[C@]13C)[C@@H](O)[C@@]1(C)C3=CC[C@@H](c4ccoc4)[C@]3(C)CC[C@@H]12
Unit Spec: %
Readout Number: 0

Cpd Smiles: CC(=O)O[C@H]1C[C@@H]2[C@@]3(C)CCC(=O)C(C)(C)[C@@H]3C[C@@H](O)[C@@]2(C)C2=CC[C@@H](c3ccoc3)[C@@]21C
Unit Spec: %
Readout Number: 0
